Tested on: M. tuberculosis H37Rv growth inhibition, 7H9 media
Assay: M. tuberculosis growth inhibition, HTS (AID 449762);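 also: bacterial growth assessed after seven days of incubation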
Details: measured here: IC90 growth inhibition
Results filed as inconclusive are left out.
Please respond with reported log10 of IC90 for every item in the list.
Scale: log10; quantity: IC90; unit before log: µM

**Q:** Reported log10 of IC90, compound Cc1ccccc1Cn1ccc(=NCc2ccccc2)cc1 : ____
**A:** 1.08

**Q:** Reported log10 of IC90, compound COc1ccc(NC(=O)CN(C)CC(=O)Nc2sc3c(c2C(N)=O)CCC3)cc1 : ____
**A:** 1.99

**Q:** Reported log10 of IC90, compound Cc1cc(-c2cc(-c3ccccc3)on2)nc(NC2CCCC2)n1 : ____
**A:** 1.73

**Q:** Reported log10 of IC90, compound C/C=C(\C)C(=O)Nc1cccc(C2=NOC3(C2)C[C@H](C(N)=O)N(C(=O)c2cc([N+](=O)[O-])cc([N+](=O)[O-])c2)C3)c1 (stereo not given in full) : ____
**A:** 0.53

**Q:** Reported log10 of IC90, compound CCc1nnc(N/N=C/c2cc(C)c(C)cc2C)n1N : ____
**A:** 1.20

**Q:** Reported log10 of IC90, compound CCc1ccc2nc(N(CCCN(C)C)C(=O)c3ccc(S(=O)(=O)N4CCCc5ccccc54)cc3)sc2c1 : ____
**A:** 1.53

**Q:** Reported log10 of IC90, compound COc1ccc(-c2nnc3sc(C4CCCCC4)nn23)cc1OC : ____
**A:** 1.74

**Q:** Reported log10 of IC90, compound Brc1ccc(-c2nc3ncccn3c2Nc2ccc3c(c2)OCCO3)o1 : ____
**A:** 1.96

----------
System: M. tuberculosis H37Rv growth inhibition, 7H9 media
Assay: M. tuberculosis growth inhibition, HTS (AID 449762);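 also: bacterial growth assessed after seven days of incubation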
Conditions: measured here: IC90 growth inhibition
Records with an inconclusive call do not appear.
endpoint-label: IC90 (µM)
Entry rule: numbers only, all in µM.

**Q:** Reported IC90, compound Cc1ccc(-n2[nH]c(C)c(C=Nc3ccc(S(=O)(=O)Nc4nccs4)cc3)c2=O)c(C)c1 : ____
**A:** 17

**Q:** Reported IC90, compound O=C(NNC(=O)C12CC3CC(CC(C3)C1)C2)c1ccccn1 : ____
**A:** 23.5

**Q:** Reported IC90, compound CCCOc1ccc(N2CC(C(=O)Nc3ccccn3)CC2=O)cc1 (stereo unspecified) : ____
**A:** 59.1

**Q:** Reported IC90, compound O=C(CN1CCN(c2nc(-c3ccc(F)cc3)cs2)CC1)NCc1ccc2c(c1)OCO2 : ____
**A:** 55.8

**Q:** Reported IC90, compound Cc1cc(C)n2nc(N)c(N=Nc3ccccc3)c2n1 : ____
**A:** 3.27

**Q:** Reported IC90, compound Cc1ccc(-c2csc3nc4c5ccccc5c(NCCCN5CCOCC5)nn4c(=O)c23)cc1 : ____
**A:** 27.7

**Q:** Reported IC90, compound CCCn1c(CC)nc([N+](=O)[O-])c1S(=O)(=O)c1ccccc1 : ____
**A:** 22.6

**Q:** Reported IC90, compound CCc1cc(C(=O)Nc2nc(-c3ccccn3)cs2)sc1C : ____
**A:** 15.3

----------
Tested on: M. tuberculosis H37Rv growth inhibition, 7H9 media
Assay: M. tuberculosis growth inhibition, HTS (AID 449762);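 also: bacterial growth assessed after seven days of incubation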
Conditions: measured here: IC90 growth inhibition
Inconclusive results are not listed.
endpoint-label: IC90

**Q:** Reported IC90, compound c1ccc(-c2nc3nonc3nc2-c2ccccc2)cc1 : ____
**A:** 43.9 µM

**Q:** Reported IC90, compound Cc1ccccc1N/N=C/c1c(C)nc2ccccn12 : ____
**A:** 53.7 µM

**Q:** Reported IC90, compound Cc1ccc(C)c(N2CCN(C(=S)Nc3ccc4nc(N5CCN(C)CC5)cc(C)c4c3)CC2)c1 : ____
**A:** 50.9 µM

**Q:** Reported IC90, compound CC(C)(C)C1CCc2nc(NC(=O)Cc3cn4ccsc4n3)sc2C1 (stereo unspecified) : ____
**A:** 39.6 µM

**Q:** Reported IC90, compound Cn1c(N)c(C(=O)COC(=O)c2ccc([N+](=O)[O-])o2)c(=O)n(C)c1=O : ____
**A:** 4.54 µM

**Q:** Reported IC90, compound CCc1ccc(NC(=O)c2ccc(C3SCC(=O)N3CCc3ccccc3)cc2)cc1 (stereo unspecified) : ____
**A:** > 100 µM

----------
System: M. tuberculosis H37Rv growth inhibition, 7H9 media
Experiment: M. tuberculosis growth inhibition, HTS (AID 449762);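 also: bacterial growth assessed after seven days of incubation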
Conditions: measured here: IC90 growth inhibition
Results filed as inconclusive are left out.
endpoint-label: IC90 (µM)
Entry rule: numbers only, all in µM.

**Q:** Report IC90 for COc1cc2c(C(=O)N3CCN(c4cccc(Cl)c4)CC3)cn(CC(C)C)c(=O)c2cc1OC tested on M. tuberculosis H37Rv growth inhibition, 7H9 media.
**A:** 53.9

**Q:** Report IC90 for Cc1cc2oc3ccc(NCCCn4ccnc4)cc3c(=O)c2cc1C tested on M. tuberculosis H37Rv growth inhibition, 7H9 media.
**A:** 27.5

**Q:** Report IC90 for CN(/N=C/c1cc(Br)cc(Br)c1O)c1cccc(C(F)(F)F)n1 tested on M. tuberculosis H37Rv growth inhibition, 7H9 media.
**A:** 7.43

**Q:** Report IC90 for CN(CCCNC(=O)c1cc2c(Cl)nc3ccccc3c2s1)Cc1ccccc1 tested on M. tuberculosis H37Rv growth inhibition, 7H9 media.
**A:** 61

**Q:** Report IC90 for CN(C)c1ccc(CNc2nc(-c3ccccc3)nn2S(C)(=O)=O)cc1 tested on M. tuberculosis H37Rv growth inhibition, 7H9 media.
**A:** 13.8

**Q:** Report IC90 for COc1ccc(-c2cc3n(n2)CCc2nc4ccccc4n2-3)cc1 tested on M. tuberculosis H37Rv growth inhibition, 7H9 media.
**A:** 5.92

**Q:** Report IC90 for COc1ccc(C(CCNCc2ccc(OC(C)C)cc2)C(C)C)cc1 (configuration not stated) tested on M. tuberculosis H37Rv growth inhibition, 7H9 media.
**A:** 26.9

**Q:** Report IC90 for c1ccc(-c2ccc(C(c3ccccc3)n3ccnc3)cc2)cc1 (configuration not stated) tested on M. tuberculosis H37Rv growth inhibition, 7H9 media.
**A:** 31.7

**Q:** Report IC90 for O=C1c2ccccc2CC1Sc1nnc(-c2ccncc2)o1 (configuration not stated) tested on M. tuberculosis H37Rv growth inhibition, 7H9 media.
**A:** 30

**Q:** Report IC90 for COc1ccc(C(C[N+](=O)[O-])c2c(-c3ccccc3)cc3ccccn23)c(OC)c1 (configuration not stated) tested on M. tuberculosis H37Rv growth inhibition, 7H9 media.
**A:** 38.6

**Q:** Report IC90 for Cn1c(NC(=S)Nc2ccccc2)nc2ccccc21 tested on M. tuberculosis H37Rv growth inhibition, 7H9 media.
**A:** 6.27

**Q:** Report IC90 for O=C(Nc1cc(N2CCOCC2)ncn1)NC1(C(F)(F)F)Oc2ccc(Cl)cc2O1 (configuration not stated) tested on M. tuberculosis H37Rv growth inhibition, 7H9 media.
**A:** 18.9

**Q:** Report IC90 for Cc1ccccc1N1CCN(C(=O)c2ccc(Oc3ccc(C(F)(F)F)cn3)cc2)CC1 tested on M. tuberculosis H37Rv growth inhibition, 7H9 media.
**A:** 60.5

**Q:** Report IC90 for CC1=NN(C(N)=S)C(=O)C1N=Nc1ccc(C)c(Br)c1 (configuration not stated) tested on M. tuberculosis H37Rv growth inhibition, 7H9 media.
**A:** 19.1

----------
Please respond with reported IC90 for every item in the list.
Tested on: M. tuberculosis H37Rv growth inhibition, 7H9 media
Test: M. tuberculosis growth inhibition, HTS (AID 449762);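 also: bacterial growth assessed after seven days of incubation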
Settings: measured here: IC90 growth inhibition
Inconclusive results are not listed.
Entry rule: numbers only, all in µM.

**Q:** Reported IC90, compound O=C(CCl)NN=C(c1ccccc1)c1ccccc1 : ____
**A:** 1.89

**Q:** Reported IC90, compound O=[N+]([O-])c1ccc(Sc2cc[n+]([O-])c3ccccc23)c([N+](=O)[O-])c1 : ____
**A:** 24.3

**Q:** Reported IC90, compound Cc1ccc(NC(=O)CCl)cc1S(=O)(=O)N1CCCCCC1 : ____
**A:** 5.03

**Q:** Reported IC90, compound CCOc1cc(NC(=O)CCl)c(OCC)cc1NC(C)=O : ____
**A:** 5.99

**Q:** Reported IC90, compound CCOC(=O)[C@@H]1[C@H]2COc3cc(OC)ccc3[C@H]2N2C(=O)N(c3ccc(C(F)(F)F)cc3)C(=O)[C@]12C : ____
**A:** 6.48

**Q:** Reported IC90, compound O=C(O)c1[nH]c(=O)[nH]c(=O)c1F : ____
**A:** 14.2

**Q:** Reported IC90, compound CCOc1ncccc1C(=O)OCC(=O)N1CCc2ccccc21 : ____
**A:** 15.4

**Q:** Reported IC90, compound Oc1[nH]c2ccccc2c1N=NC(=S)N1CCOCC1 : ____
**A:** 13.9

**Q:** Reported IC90, compound COC(=O)[C@H](CC(C)C)NC(=O)c1cc2c(cn1)[nH]c1ccccc12 : ____
**A:** 29.2

**Q:** Reported IC90, compound CN1/C(=C\C(=O)COC(=O)c2ccc([N+](=O)[O-])o2)C(C)(C)c2ccccc21 : ____
**A:** 3.54

**Q:** Reported IC90, compound CCOC(=O)c1[nH]c2ccc(F)cc2c1NC(=O)CN1CCN(C/C=C/c2ccccc2)CC1 : ____
**A:** 27.1

**Q:** Reported IC90, compound Cc1cc(C)n(-c2cc(C(C)(C)C)nc3c(-c4ccccc4)cnn23)n1 : ____
**A:** 34.7

**Q:** Reported IC90, compound CC(C)NC(=O)c1sc(=S)n2c1[nH]c(=O)c1ccc(C(=O)NCCc3ccc(Cl)cc3)cc12 : ____
**A:** 0.49

**Q:** Reported IC90, compound CC(=O)C1=C(C)NC(SCC(=O)c2ccc(F)cc2)=C(C#N)C1c1ccco1 (stereo unspecified) : ____
**A:** 51

**Q:** Reported IC90, compound CCOc1cc2c(cc1OCC)-n1cccc1C(c1ccc(C(C)C)cc1)NC2 (stereo unspecified) : ____
**A:** 29.6

**Q:** Reported IC90, compound COc1cc(C(=O)/C=C/c2cccnc2)c([N+](=O)[O-])cc1OC : ____
**A:** 8.56

**Q:** Reported IC90, compound Cc1cc(C)c2cc(C(=O)Nc3ccc(C)c(F)c3)[nH]c2c1 : ____
**A:** 1.69

**Q:** Reported IC90, compound Cc1cc(C(=O)N[C@H](c2ccccc2)[C@@]2(C)C[C@@H]2[C@@H](C)C(=O)Nc2ccc3ccccc3c2)n(C)n1 : ____
**A:** 27.6

**Q:** Reported IC90, compound COC(=O)c1ccc(-n2cnc3ccccc32)nc1 : ____
**A:** 45.1
